The entries below are paired with their reported pIC50.
Tested on: IL-2
EXPERIMENT SUMMARY: PHA-IL2 (cell activation and cytokine analysis)
Assay type: cell-based
STATED CONDITIONS: 50% inhibition concentration class
pIC50: −log10 of the molar value.

State its pIC50 for this compound: CC1Oc2ccc(CCC3CCN(C(=O)COc4ccccc4-c4ccccc4O)CC3)cc2OC1C (stereo not shown)
> 6.00

Note pIC50 for the compound shown: O=C(COc1ccccc1-c1ccccc1)N1CCC(CCc2cc3c(cc2CO)OCO3)CC1
5.00 to 6.00

Name the recorded pIC50 of the compound listed here: O=C(COc1ccccc1-c1cc(F)c(F)c(F)c1)N1CCC(CCc2ccc3c(c2)OCO3)CC1
> 6.00

New cases:
Please report pIC50 for the following compound: O=C(COc1ccccc1-c1ccc(Cl)cc1)N1CCC(CCc2ccc3c(c2)OCO3)CC1
> 6.00

----------
# IC50 per record follows
Test system: IL-2
EXPERIMENT SUMMARY: PHA-IL2 (cell activation and cytokine analysis)
Assay type: cell-based
STATED CONDITIONS: 50% inhibition concentration class
Source text: Cells to be tested may include, but are not limited to, a) Jurkat (a transformed human T cell leukemia), b) whole blood isolated from human or rodent sources, c) peripheral blood mononuclear cells (PBMC) freshly isolated from human or rodent whole blood, or d) purified fractions of PBMC (e.g., CD4 T cells). […] Cytokines to be analyzed may include IL-2, IL-4, IL-10, IL-17, IL-22, IFNγ, and/or TNFα. […]

Give reported IC50 value for O=C(COc1ccccc1-c1cccc(F)c1)N1CCC(CCc2ccc3c(c2)OCO3)CC1
1000 to 10000 nM

Tell me its IC50 given O=C(COc1cccnc1-c1ccc2[nH]ncc2c1)N1CCC(CCc2ccncc2)CC1 as the entry.
1000 to 10000 nM

Tell me measured IC50 for COc1cccc(CCC2CCN(C(=O)CCc3ccccc3-c3ccc(C#N)cc3)CC2)c1 please.
1000 to 10000 nM

Given the molecule COc1cccc(CCC2CCN(C(=O)COc3cccnc3-c3ccc4c(ccn4C)c3)CC2)c1 , write its reported IC50.
1000 to 10000 nM

// Input: N#Cc1ccc(OCC(=O)N2CCC(CCc3ccccc3)CC2)c(-c2ccc(F)cc2O)c1 . Output its IC50 only.
< 1000 nM

Given the molecule CC(C)Oc1ccc(CCC2CCN(C(=O)COc3ccccc3-c3ccc(F)cc3O)CC2)cc1 , write its reported IC50.
< 1000 nM

Recall and state the measured IC50 for N#Cc1ccc(OCC(=O)N2CCC(CCc3cccc(OC(F)F)c3)CC2)c(-c2ccc(F)cc2O)c1 .
< 1000 nM

Tell us which IC50 value is on record for CC(C)NC(=O)c1ccc(CCC2CCN(C(=O)COc3ccccc3-c3ccccc3)CC2)cc1
1000 to 10000 nM

Determine its reported IC50: O=C(c1ccccc1)c1ccc(-c2ccccc2OCC(=O)N2CCC(CCc3ccc4c(c3)OCO4)CC2)cc1
< 1000 nM

In one line, give reported IC50 of the entry O=C(COc1cccnc1-c1ccc(F)nc1)N1CCC(CCc2ccc3c(c2)OCCO3)CC1 .
1000 to 10000 nM

More entries:
For O=C(COc1ccccc1-c1ccccc1F)N1CCC(CCc2ccc3c(c2)OCO3)CC1 , write its IC50.
1000 to 10000 nM

Fill in reported IC50 for this entry: O=C(COc1ccccc1-c1ccc2[nH]cnc2c1)N1CCC(CCc2ccc3c(c2)OCO3)CC1
1000 to 10000 nM

Annotate the molecule COc1ccccc1CCC1CCN(C(=O)COc2ccccc2-c2ccccc2)CC1 with its measured IC50.
1000 to 10000 nM

Give a short answer stating reported IC50 for COc1cccc(CCC2CCN(C(=O)COc3ccccc3-c3ccc(F)cc3O)CC2)c1 .
< 1000 nM

Return value of IC50 for input CC(C)Oc1cccc(CCC2CCN(C(=O)COc3cccnc3-c3ccc(C#N)cc3)CC2)c1 , no commentary.
< 1000 nM

----------
Test system: IL-2
EXPERIMENT SUMMARY: PHA-IL2 (cell activation and cytokine analysis)
Type: cell-based
STATED CONDITIONS: 50% inhibition concentration class
Below is a list of entries, each paired with its recorded IC50 value.

Assign IC50 to the following record: Nc1ccc(/C=C/C2CCN(C(=O)COc3ccccc3-c3ccccc3)CC2)cn1 [Compound 252]
10 to 50 µM

Complete the entry with IC50 for CC(C)Oc1cccc(CCC2CCN(C(=O)COc3ccccc3-c3ccc(C(=O)c4ccc(O)cc4)cc3)CC2)c1 [Compound 421]
1 to 10 µM

State its IC50 for this molecule: CCc1ccc(OCC(=O)N2CCC(CCc3ccc4c(c3)OCO4)CC2)c(-c2ccc(F)cc2)c1 [Compound 273]
1 to 10 µM

Supply recorded IC50 for N#Cc1cccc(-c2ccccc2OCC(=O)N2CCC(CCc3ccc4c(c3)OCO4)CC2)c1 [Compound 192] here.
1 to 10 µM

Give reported IC50 value for CCc1ccc(OCC(=O)N2CCC(CCc3ccc4c(c3)OCO4)CC2)c(-c2ccc3[nH]ncc3c2)c1 [Compound 277]
< 1 µM

---
Give the value of IC50 reported for the following: Cc1cccc(-c2ccccc2)c1OC(C)C(=O)N1CCC(CCc2cc(F)cc(F)c2)CC1 (centres unmarked) [Compound 229]
1 to 10 µM

Tell me its IC50 given N#Cc1ccc(-c2ccccc2OCC(=O)N2CCC(CCc3ccc4c(c3)OCO4)CC2)cn1 [Compound 289] as the entry.
< 1 µM

Fill in IC50 for record Cc1cc(F)ncc1-c1ncccc1OCC(=O)N1CCC(CCc2ccccc2)CC1 [Compound 333]
10 to 50 µM

----------
The entries below are paired with their reported IC50.
Tested on: IL-2
EXPERIMENT SUMMARY: PHA-IL2 (cell activation and cytokine analysis)
Format: cell-based
STATED CONDITIONS: 50% inhibition concentration class

As a guide, the following entries are already answered.
Consider the molecule C#CCOc1cccc(CCC2CCN(C(=O)COc3ccccc3-c3ccc(C(=O)c4ccccc4)cc3)CC2)c1 tested on IL-2; state its IC50.
1 to 10 µM

For IL-2, give the measured IC50 of the entry O=C(COc1ccccc1-c1ccc(C(F)(F)F)cc1O)N1CCC(CCc2ccc3c(c2)OCO3)CC1
1 to 10 µM

Enter measured IC50, system IL-2, for the molecule shown: O=C(COc1ccccc1-c1ccc(F)cc1O)N1CCC(CCc2ccc3c(c2)OCCO3)CC1
< 1 µM

Send back IL-2 IC50 of O=C(COc1ccccc1-c1ccccc1)N1CCC(CCc2ccc3c(c2)OCCCO3)CC1 only.
< 1 µM

# lookup: IL-2 IC50, key = O=C(COc1ccccc1-c1ccccc1)N1CCC(CCc2cc(C(F)(F)F)cc(C(F)(F)F)c2)CC1
< 1 µM

New cases:
Name the recorded IC50 of O=C(COc1ccccc1-c1ccncc1)N1CCC(CCc2ccc3c(c2)OCO3)CC1 , assay system IL-2.
1 to 10 µM

Answer with IC50 of O=C(COc1cccnc1-c1ccc(F)cc1O)N1CCC(CCc2ccc3c(c2)OCCCO3)CC1 measured for IL-2.
1 to 10 µM

Give IC50 for CCOC(=O)c1cccc(-c2ccccc2OCC(=O)N2CCC(CCc3ccc4c(c3)OCO4)CC2)c1 tested on IL-2.
1 to 10 µM

----------
System: IL-2
EXPERIMENT SUMMARY: PHA-IL2 (cell activation and cytokine analysis)
Assay type: cell-based
STATED CONDITIONS: 50% inhibition concentration class
ASSAY METRIC: IC50

Give recorded IC50. CC1Oc2ccc(CCC3CCN(C(=O)COc4ccccc4-c4ccc(C#N)cc4)CC3)cc2OC1C (stereo not shown)
< 1 µM

Determine from records and report IC50 for O=C(COc1ccncc1-c1ccc(F)cc1O)N1CCC(CCc2ccc3c(c2)OCO3)CC1
10 to 50 µM

Specify measured IC50 for N#Cc1cc(-c2ccccc2OCC(=O)N2CCC(CCc3ccc4c(c3)OCO4)CC2)ccc1F .
< 1 µM

Next item in the queue.
Return value of IC50 for input O=C(CCc1ccccc1-c1ccc(F)cc1)N1CCC(CCc2cc(F)cc(F)c2)CC1 , no commentary.
1 to 10 µM

----------
System: IL-2
EXPERIMENT SUMMARY: PHA-IL2 (cell activation and cytokine analysis)
Type: cell-based
STATED CONDITIONS: 50% inhibition concentration class
Attribute: IC50

For orientation, consider the following solved cases.
Provide measured IC50 on IL-2 for O=C(COc1ccccc1-c1ccc(F)cc1O)N1CCC(CCc2ccc(OCCN3CCOCC3)cc2)CC1 [Compound 349] please.
1 to 10 µM

Fill in: IC50 on IL-2, entry N#Cc1ccc(OCC(=O)N2CCC(CCc3cccc(OC4CC4)c3)CC2)c(-c2ccc(F)cc2O)c1 [Compound 407]
< 1 µM

Provide IC50, tested on IL-2, for COc1ccc(CCC2(O)CCN(C(=O)COc3ccccc3-c3ccccc3)CC2)cc1 [Compound 175] .
10 to 50 µM

Answer with IC50 of O=C(c1ccccc1)c1ccc(-c2ccccc2OCC(=O)N2CCC(CCc3cccc(O)c3)CC2)cc1 [Compound 415] measured for IL-2.
< 1 µM

Report measured IC50 on IL-2; entry: O=C(c1ccccc1)c1ccc(-c2ccccc2OCC(=O)N2CCC(CCc3ccc(O)cc3)CC2)cc1 [Compound 314]
< 1 µM

Answer with IC50 of COc1cccc(-c2ccccc2OCC(=O)N2CCC(CCc3ccc4c(c3)OCO4)CC2)c1OC [Compound 241] measured for IL-2.
< 1 µM

Further cases:
Please report the measured IC50 for N#Cc1ccc(-c2ccccc2OCC(=O)N2CCC(CCc3ccccc3)CC2)cc1 [Compound 269] tested on IL-2.
< 1 µM

Report measured IC50 on IL-2; entry: N#Cc1ccc(-c2ncccc2OCC(=O)N2CCC(CCc3ccc4c(c3)OCCCO4)CC2)cn1 [Compound 342]
10 to 50 µM

Write down measured IC50 (IL-2) for this compound. COc1cccc(CCC2CCN(C(=O)COc3ccccc3-c3ccc(C(F)(F)F)cc3O)CC2)c1 [Compound 364]
1 to 10 µM

State the measured IC50 (IL-2) of O=C(C1CC1c1cc2c(cc1-c1ccccc1)OCO2)N1CCC(CCc2ccc3c(c2)OCO3)CC1 (stereo not shown) [Compound 260]
< 1 µM

Enter measured IC50, system IL-2, for the compound shown: CCOc1ccc(-c2ccccc2OCC(=O)N2CCC(CCc3ccc4c(c3)OCO4)CC2)cc1 [Compound 186]
1 to 10 µM
